Listed below: MIC values for each entry.
- Tested on: Candida glabrata

### Prompt Reported MIC for CCOC(=O)C1=C(C)NC(=S)NC1c1coc2ccc(F)cc2c1=O (stereo not shown) : what is it?
### Response 44 µg/mL

### Prompt Reported MIC for Clc1ccc(COC(Cn2ccnc2)c2ccc(Cl)cc2Cl)c(Cl)c1 (stereo not shown) [Miconazole, reference compound] : what is it?
### Response 25 µg/mL

### Prompt Reported MIC for CCOC(=O)C1=C(C)NC(=O)NC1c1coc2ccc(OC)cc2c1=O (stereo not shown) : what is it?
### Response 38 µg/mL

### Prompt Reported MIC for CCOC(=O)C1=C(C)NC(=O)NC1c1coc2ccccc2c1=O (stereo not shown) : what is it?
### Response > 100 µg/mL

### Prompt Reported MIC for COc1ccc2occ(C3NC(=S)NC(C)=C3C(=O)NN)c(=O)c2c1 (stereo not shown) : what is it?
### Response 25 µg/mL

###

IC50 data for DdlB from E.coli (Escherichia coli, UniProt P07862) follow.
# output: bare number, implied unit µM

[[record]]
compound = "N[C@@H]1CON=C1O [D-Cycloserine, reference compound]"
units_label = "µM"
value_observed = 276

[[record]]
compound = "CC1=C(C(=O)NN)C(c2coc3ccc(F)cc3c2=O)NC(=O)N1 (stereo not shown) [Compound 6c]"
units_label = "µM"
value_observed = 106

[[record]]
compound = "CCOC(=O)C1=C(C)NC(=O)NC1c1coc2ccc(F)cc2c1=O (stereo not shown) [Compound 4c]"
units_label = "µM"
value_observed = 155

[[record]]
compound = "CCOC(=O)C1=C(C)NC(=O)NC1c1coc2ccc(OC)cc2c1=O (stereo not shown) [Compound 4d]"
units_label = "µM"
value_observed = 330

[[record]]
compound = "COc1ccc2occ(C3NC(=O)NC(C)=C3C(=O)NN)c(=O)c2c1 (stereo not shown) [Compound 6e]"
units_label = "µM"
value_observed = 315

[[record]]
compound = "CCOC(=O)C1=C(C)NC(=S)NC1c1coc2ccc(OC)cc2c1=O (stereo not shown) [Compound 4e]"
units_label = "µM"
value_observed = 335

[[record]]
compound = "CC1=C(C(=O)NN)C(c2coc3ccccc3c2=O)NC(=O)N1 (stereo not shown) [Compound 6a]"
units_label = "µM"
value_observed = 127

[[record]]
compound = "CCOC(=O)C1=C(C)NC(=S)NC1c1coc2ccc(F)cc2c1=O (stereo not shown) [Compound 4f]"
units_label = "µM"
value_observed = 280

[[record]]
compound = "CC1=C(C(=O)NN)C(c2coc3ccc(F)cc3c2=O)NC(=S)N1 (stereo not shown) [Compound 6d]"
units_label = "µM"
value_observed = 111

[[record]]
compound = "CCOC(=O)C1=C(C)NC(=S)NC1c1coc2ccccc2c1=O (stereo not shown) [Compound 4b]"
units_label = "µM"
value_observed = 296


### Prompt Item CC1=C(C(=O)NN)C(c2coc3ccccc3c2=O)NC(=S)N1 (stereo not shown) [Compound 6b] with DdlB from E.coli (Escherichia coli, UniProt P07862) - IC50?
### Response 124

### Prompt Item CCOC(=O)C1=C(C)NC(=O)NC1c1coc2ccccc2c1=O (stereo not shown) [Compound 4a] with DdlB from E.coli (Escherichia coli, UniProt P07862) - IC50?
### Response 158
